- System: Enterococcus faecalis
- measurement_notes: Antimicrobial activity against Enterococcus faecalis VRE-309 after 16 hrs by broth microdilution method
- Type: functional
- condition_label: VRE-309, 16 h
attribute_measured: MIC

- compound: "COc1ccc(NC(=S)N/N=C2\\C(=O)Nc3c(F)cccc32)cc1"
  attribute_measured: "MIC"
  measurement: "> 100 mg/L"
- compound: "COc1ccc(NC(=S)N/N=C2\\C(=O)Nc3c(Br)cccc32)cc1"
  attribute_measured: "MIC"
  measurement: "> 100 mg/L"

For COc1ccccc1NC(=S)N/N=C1\C(=O)Nc2c(F)cccc21 , write its MIC.
> 100 mg/L

For CN[C@H](CC(C)C)C(=O)N[C@H]1C(=O)N[C@@H](CC(N)=O)C(=O)N[C@H]2C(=O)N[C@H]3C(=O)N[C@H](C(=O)N[C@H](C(=O)O)c4cc(O)cc(O)c4-c4cc3ccc4O)[C@H](O)c3ccc(c(Cl)c3)Oc3cc2cc(c3O[C@@H]2O[C@H](CO)[C@@H](O)[C@H](O)[C@H]2O[C@H]2C[C@](C)(N)[C@H](O)[C@H](C)O2)Oc2ccc(cc2Cl)[C@H]1O [VANCOMYCIN] , write its MIC.
> 8 mg/L

For COc1ccc(NC(=S)N/N=C2\C(=O)Nc3c(I)cccc32)cc1 , write its MIC.
> 100 mg/L

For COc1cccc(NC(=S)N/N=C2\C(=O)Nc3c(Cl)cccc32)c1 , write its MIC.
> 100 mg/L

---

- Tested on: Staphylococcus aureus
- measurement_notes: Antimicrobial activity against methicillin-resistant Staphylococcus aureus 309-7 clinical isolate after 16 hrs by broth microdilution method
- Format: functional
- condition_label: 309-7, 16 h
Below, each entry is listed with its recorded MIC.
Respond numerically; units are µg/mL and should not be typed.

As a guide, the following entries are already answered.
- chemical_structure: "Cc1cccc(NC(=S)N/N=C2\\C(=O)Nc3c(F)cccc32)c1"
  unit_annotation: "µg/mL"
  MIC: 0.78
- chemical_structure: "Cc1ccc(NC(=S)N/N=C2\\C(=O)Nc3c(Br)cccc32)cc1"
  unit_annotation: "µg/mL"
  MIC: 0.78
- chemical_structure: "Cc1ccccc1NC(=S)N/N=C1\\C(=O)Nc2c(Cl)cccc21"
  unit_annotation: "µg/mL"
  MIC: 0.78
- chemical_structure: "O=C1Nc2c(Br)cccc2/C1=N/NC(=S)Nc1ccc(F)cc1"
  unit_annotation: "µg/mL"
  MIC: 0.39
- chemical_structure: "O=C1Nc2c(Cl)cccc2/C1=N/NC(=S)Nc1ccccc1"
  unit_annotation: "µg/mL"
  MIC: 0.78
- chemical_structure: "O=C1Nc2c(I)cccc2/C1=N/NC(=S)Nc1ccc(Cl)cc1"
  unit_annotation: "µg/mL"
  MIC: 0.78

For COc1ccc(NC(=S)N/N=C2\C(=O)Nc3c(Br)cccc32)cc1 , write its MIC.
0.78

For O=C1Nc2c(Cl)cccc2/C1=N/NC(=S)Nc1cccc(F)c1 , write its MIC.
0.78

For Cc1cccc(NC(=S)N/N=C2\C(=O)Nc3c(Cl)cccc32)c1 , write its MIC.
0.78

For Cc1ccccc1NC(=S)N/N=C1\C(=O)Nc2c(I)cccc21 , write its MIC.
1.56
